Where do these numbers come from? They come from patent US20040063790A1.

# Tested On: αIIbβ3 (Homo sapiens, UniProt P05106+P08514)
# Construct: selected purified integrins were separately immobilized in Titertek microtiter wells
# Sequence (P08514 32-887 limits assumed): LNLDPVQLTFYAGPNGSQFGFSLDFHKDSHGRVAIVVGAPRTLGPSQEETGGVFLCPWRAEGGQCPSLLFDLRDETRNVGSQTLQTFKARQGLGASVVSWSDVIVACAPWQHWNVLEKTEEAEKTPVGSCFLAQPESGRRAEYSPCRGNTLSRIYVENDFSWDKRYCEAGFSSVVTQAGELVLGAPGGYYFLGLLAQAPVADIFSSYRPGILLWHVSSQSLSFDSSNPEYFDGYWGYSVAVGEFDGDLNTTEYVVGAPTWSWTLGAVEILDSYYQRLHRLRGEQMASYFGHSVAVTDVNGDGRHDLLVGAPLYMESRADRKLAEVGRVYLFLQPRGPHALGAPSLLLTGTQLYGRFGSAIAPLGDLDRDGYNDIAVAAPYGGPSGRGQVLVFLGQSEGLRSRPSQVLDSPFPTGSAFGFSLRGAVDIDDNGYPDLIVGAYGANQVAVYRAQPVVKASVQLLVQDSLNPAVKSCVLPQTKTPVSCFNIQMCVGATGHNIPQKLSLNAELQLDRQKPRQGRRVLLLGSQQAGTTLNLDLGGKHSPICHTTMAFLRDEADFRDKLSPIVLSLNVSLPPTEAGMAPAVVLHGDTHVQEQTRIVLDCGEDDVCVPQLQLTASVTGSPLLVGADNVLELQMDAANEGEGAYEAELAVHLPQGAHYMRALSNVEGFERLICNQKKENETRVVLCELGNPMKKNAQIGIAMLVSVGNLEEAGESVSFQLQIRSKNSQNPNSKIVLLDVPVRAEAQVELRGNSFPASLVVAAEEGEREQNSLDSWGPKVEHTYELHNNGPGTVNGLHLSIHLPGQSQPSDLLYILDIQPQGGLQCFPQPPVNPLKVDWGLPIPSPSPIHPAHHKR
# Sequence (P08514 891-1039 partner limits assumed): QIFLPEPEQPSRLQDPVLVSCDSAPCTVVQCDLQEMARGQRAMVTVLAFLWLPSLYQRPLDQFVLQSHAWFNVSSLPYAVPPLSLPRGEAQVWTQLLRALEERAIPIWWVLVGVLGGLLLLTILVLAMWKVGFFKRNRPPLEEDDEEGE
# Sequence (P05106 27-788): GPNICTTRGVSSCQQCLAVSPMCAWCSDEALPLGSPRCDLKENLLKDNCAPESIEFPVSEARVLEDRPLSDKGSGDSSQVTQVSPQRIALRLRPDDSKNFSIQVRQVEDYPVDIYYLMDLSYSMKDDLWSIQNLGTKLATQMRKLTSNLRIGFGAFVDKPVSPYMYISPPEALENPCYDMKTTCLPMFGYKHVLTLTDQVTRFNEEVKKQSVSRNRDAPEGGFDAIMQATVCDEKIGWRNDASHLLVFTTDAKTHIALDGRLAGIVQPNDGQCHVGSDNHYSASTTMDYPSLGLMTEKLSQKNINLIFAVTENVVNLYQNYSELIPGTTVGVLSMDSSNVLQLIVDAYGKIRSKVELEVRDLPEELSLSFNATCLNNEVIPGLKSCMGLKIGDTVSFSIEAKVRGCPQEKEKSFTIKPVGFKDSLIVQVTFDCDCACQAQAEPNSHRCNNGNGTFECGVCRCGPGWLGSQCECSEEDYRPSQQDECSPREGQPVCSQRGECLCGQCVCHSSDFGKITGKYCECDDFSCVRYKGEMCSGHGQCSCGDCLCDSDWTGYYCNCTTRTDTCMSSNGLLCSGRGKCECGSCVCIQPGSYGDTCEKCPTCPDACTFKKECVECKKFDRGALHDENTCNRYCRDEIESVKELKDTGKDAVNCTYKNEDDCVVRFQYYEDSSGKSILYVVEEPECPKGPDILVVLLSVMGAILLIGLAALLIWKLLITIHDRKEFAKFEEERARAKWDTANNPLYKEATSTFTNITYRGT
# Experiment Description: Ligand-receptor binding assay, immobilized αIIbβ3
# Conditions Used: radiolabeled fibrinogen; average of duplicate data points ± standard deviation; read-out: αIIbβ3 (IC50 μM)
Where a SMILES comes first, the peptide text is derived from it. [ ]: non-standard residue; d: D form.
Task for the reader: assign each of the following compounds its reported IC50.
Give bare numbers, in µM.

Look over these answered cases.
[
  {
    "Compound": "CC(C)C[C@@H]1NC(=O)[C@@H](Cc2ccccc2)NC(=O)[C@H](CC(=O)O)NC(=O)CNC(=O)[C@H](CCCNC(=N)N)NC(=O)CNC1=O [Peptide 62179, cyclo (GRGDfL)] (cyclo(GRGD[dF]L))",
    "Tested On": "αIIbβ3 (Homo sapiens, UniProt P05106+P08514)",
    "Uom": "µM",
    "IC50": 0.055
  },
  {
    "Compound": "CC(C)[C@@H]1NC(=O)[C@@H](Cc2ccccc2)NC(=O)[C@H](CC(=O)O)NC(=O)[C@H](C)NC(=O)[C@H](CCCN=C(N)N)NC1=O [Peptide 62185, cyclo (RADfV)] (cyclo(AD[dF]VR))",
    "Tested On": "αIIbβ3 (Homo sapiens, UniProt P05106+P08514)",
    "Uom": "µM",
    "IC50": 100
  },
  {
    "Compound": "CC(C)C[C@@H]1NC(=O)[C@@H](Cc2ccccc2)NC(=O)[C@H](CC(=O)O)NC(=O)CNC(=O)[C@H](CCCNC(=N)N)NC(=O)[C@H](C)NC1=O [Peptide 62175, cyclo (ARGDfL)] (cyclo(ARGD[dF]L))",
    "Tested On": "αIIbβ3 (Homo sapiens, UniProt P05106+P08514)",
    "Uom": "µM",
    "IC50": 0.63
  }
]

Continue with the compound presented below.
# input compound: CC(C)[C@@H]1NC(=O)[C@H](Cc2ccccc2)NC(=O)[C@H](CC(=O)O)NC(=O)CNC(=O)[C@@H](CCCNC(=N)N)NC(=O)CNC1=O [Peptide 62181, cyclo (GrGDFV)] (cyclo(G[dR]GDFV)) ; wanted: its IC50
15
